Source: patent US10065956B2

EC50: recorded values
Molecular target: human mGlu4 receptor (Homo sapiens)
Construct: expressed in transfected cells; host or cells: monoclonal HEK-293 cell line, stably transfected
Sequence (Q14833 33-912): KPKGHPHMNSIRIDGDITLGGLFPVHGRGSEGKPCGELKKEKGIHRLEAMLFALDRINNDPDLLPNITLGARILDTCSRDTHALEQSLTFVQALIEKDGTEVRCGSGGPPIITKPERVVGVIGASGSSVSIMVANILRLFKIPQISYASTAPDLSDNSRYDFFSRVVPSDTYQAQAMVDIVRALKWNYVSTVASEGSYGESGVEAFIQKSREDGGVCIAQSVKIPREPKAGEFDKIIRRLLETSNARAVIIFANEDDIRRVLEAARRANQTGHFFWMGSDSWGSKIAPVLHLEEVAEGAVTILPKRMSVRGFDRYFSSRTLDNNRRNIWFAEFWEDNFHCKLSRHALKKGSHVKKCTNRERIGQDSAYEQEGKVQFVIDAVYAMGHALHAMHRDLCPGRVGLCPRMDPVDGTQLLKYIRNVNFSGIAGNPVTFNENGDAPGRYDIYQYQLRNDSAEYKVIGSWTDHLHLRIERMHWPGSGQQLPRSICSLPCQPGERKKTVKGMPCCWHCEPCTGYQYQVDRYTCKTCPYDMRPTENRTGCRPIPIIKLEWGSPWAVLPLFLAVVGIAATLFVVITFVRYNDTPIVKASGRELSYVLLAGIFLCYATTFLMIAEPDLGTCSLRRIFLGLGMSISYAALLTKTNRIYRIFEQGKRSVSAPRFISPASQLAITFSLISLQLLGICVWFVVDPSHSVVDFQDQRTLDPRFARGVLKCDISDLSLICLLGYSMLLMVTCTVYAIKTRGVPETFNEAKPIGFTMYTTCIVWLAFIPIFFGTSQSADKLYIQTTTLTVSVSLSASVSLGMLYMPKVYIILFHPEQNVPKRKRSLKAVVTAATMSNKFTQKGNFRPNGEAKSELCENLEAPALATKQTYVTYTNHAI
Assay: Ca2+ mobilization in vitro assay on recombinant human mGlu4 expressed in HEK293 cells (PAM, L-AP4 at EC20)
Format: cell-based
Conditions: HEK293 cells expressing human mGlu4; L-AP4 added at EC20
Hi! Could you send only the number? It should be in nM, unit omitted.

Before answering, review these 3 worked examples.
compound: CN1C(=O)N(c2c(F)cc(C#Cc3ccccc3)cc2F)C(=O)C[C@@]1(C)c1ccns1 [Example 43]
u: nM
EC50: 67
--
compound: CN1C(=O)N(c2c(F)cc(C#Cc3ccccc3F)cc2F)C(=O)C[C@@]1(C)c1cnn(C)c1 [Example 50]
u: nM
EC50: 50
--
compound: CN1C(=O)N(c2c(F)cc(C#Cc3cccc(F)c3)cc2F)C(=O)C[C@@]1(C)c1cnn(C)c1 [Example 47]
u: nM
EC50: 71

For COCCCn1cc([C@]2(C)CC(=O)N(c3c(F)cc(C#Cc4ccccc4)cc3F)C(=O)N2C)cn1 [Example 21] , write its EC50.
70

For CCn1cc([C@]2(C)CC(=O)N(c3c(F)cc(C#Cc4ccccc4)cc3F)C(=O)N2C)cn1 [Example 13] , write its EC50.
64

For CN1C(=O)N(c2c(F)cc(C#Cc3ccccc3)cc2F)C(=O)C[C@@]1(C)c1ccsn1 [Example 38] , write its EC50.
39

For CN1C(=O)N(c2c(F)cc(C#Cc3cnsc3)cc2F)C(=O)C[C@@]1(C)c1cnn(C)c1 [Example 25] , write its EC50.
45

For CN1C(=O)N(c2c(F)cc(C#Cc3ccccc3)cc2F)C(=O)C[C@@]1(C)c1cnn(C2CC2)c1 [Example 52] , write its EC50.
31
